Source of measurements: patent US5525742A

biological target: KATP channel in A10 rat aortic smooth muscle cells (Rattus norvegicus); construct: resting membrane potential of A10 rat aortic smooth muscle cells; assay: A10 membrane potential assay (DiBAC4(3) fluorescence), KATP channel opening; settings: A10 cells, hyperpolarization of membrane potential
Sequence (Q63563 1-1545 isoform Q63563-2): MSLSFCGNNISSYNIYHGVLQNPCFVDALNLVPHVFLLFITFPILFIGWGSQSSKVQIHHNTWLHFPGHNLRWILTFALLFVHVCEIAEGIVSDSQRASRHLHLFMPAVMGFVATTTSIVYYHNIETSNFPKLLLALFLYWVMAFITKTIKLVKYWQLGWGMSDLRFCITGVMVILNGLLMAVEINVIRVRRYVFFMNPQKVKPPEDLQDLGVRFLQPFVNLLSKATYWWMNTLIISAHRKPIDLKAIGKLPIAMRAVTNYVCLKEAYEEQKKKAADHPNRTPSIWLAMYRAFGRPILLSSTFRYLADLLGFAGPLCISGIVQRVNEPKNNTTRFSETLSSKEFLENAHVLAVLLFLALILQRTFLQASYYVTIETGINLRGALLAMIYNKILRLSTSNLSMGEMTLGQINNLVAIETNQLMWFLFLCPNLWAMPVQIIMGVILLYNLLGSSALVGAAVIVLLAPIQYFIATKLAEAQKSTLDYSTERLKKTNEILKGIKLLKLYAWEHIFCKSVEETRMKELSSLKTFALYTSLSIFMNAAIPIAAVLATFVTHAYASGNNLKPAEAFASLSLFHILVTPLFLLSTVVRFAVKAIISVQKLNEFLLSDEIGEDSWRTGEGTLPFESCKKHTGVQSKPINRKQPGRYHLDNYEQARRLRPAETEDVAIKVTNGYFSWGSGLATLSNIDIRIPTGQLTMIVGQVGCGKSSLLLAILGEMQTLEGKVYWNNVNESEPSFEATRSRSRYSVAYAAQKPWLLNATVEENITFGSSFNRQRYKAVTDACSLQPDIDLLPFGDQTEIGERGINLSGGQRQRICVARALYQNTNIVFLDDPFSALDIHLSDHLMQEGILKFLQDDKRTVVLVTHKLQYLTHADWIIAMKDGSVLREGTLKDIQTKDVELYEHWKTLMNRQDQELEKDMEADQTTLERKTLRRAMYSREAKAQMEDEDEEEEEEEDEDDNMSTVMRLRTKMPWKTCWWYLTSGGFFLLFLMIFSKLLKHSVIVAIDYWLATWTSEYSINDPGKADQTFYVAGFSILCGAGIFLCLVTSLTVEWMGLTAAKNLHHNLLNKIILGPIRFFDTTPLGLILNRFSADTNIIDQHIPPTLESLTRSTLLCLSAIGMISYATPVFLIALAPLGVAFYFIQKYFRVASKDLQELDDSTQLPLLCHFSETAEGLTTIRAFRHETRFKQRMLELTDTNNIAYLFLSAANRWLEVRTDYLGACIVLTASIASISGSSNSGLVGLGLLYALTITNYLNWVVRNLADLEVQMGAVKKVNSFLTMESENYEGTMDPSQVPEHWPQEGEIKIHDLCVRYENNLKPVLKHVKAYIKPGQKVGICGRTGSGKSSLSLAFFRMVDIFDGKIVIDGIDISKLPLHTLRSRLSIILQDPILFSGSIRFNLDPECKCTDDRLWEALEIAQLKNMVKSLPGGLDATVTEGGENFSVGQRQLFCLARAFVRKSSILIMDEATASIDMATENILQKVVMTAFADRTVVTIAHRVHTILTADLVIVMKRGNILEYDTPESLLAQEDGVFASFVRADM
Sequence (Q63664 whole entry partner): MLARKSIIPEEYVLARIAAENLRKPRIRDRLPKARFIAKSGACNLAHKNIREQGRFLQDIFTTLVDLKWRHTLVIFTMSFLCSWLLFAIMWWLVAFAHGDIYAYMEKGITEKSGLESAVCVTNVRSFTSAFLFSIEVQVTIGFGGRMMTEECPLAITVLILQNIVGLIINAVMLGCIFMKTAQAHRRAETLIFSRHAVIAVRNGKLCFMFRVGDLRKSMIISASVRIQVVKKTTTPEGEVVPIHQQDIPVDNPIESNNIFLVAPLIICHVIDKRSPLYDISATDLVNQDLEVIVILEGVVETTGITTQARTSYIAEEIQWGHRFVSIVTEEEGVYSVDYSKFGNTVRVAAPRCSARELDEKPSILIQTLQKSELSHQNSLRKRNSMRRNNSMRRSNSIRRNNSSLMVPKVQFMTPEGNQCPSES
metric: EC50

Solved cases below.
| compound | metric | result |
| --- | --- | --- |
| CCC(C)(C)N=C(NC#N)Nc1cc(I)cc(N=[N+]=[N-])c1 [Example 2] | EC50 | ~30 nM |
| CCC(C)(C)NC(=Nc1cccnc1)NC#N [reference compound] | EC50 | 30 nM |

Moving on to the next compound.
input: EC50 of CCC(C)(C)N=C(NC#N)Nc1cc(Cl)cc(N=[N+]=[N-])c1 [Example 1] on KATP channel in A10 rat aortic smooth muscle cells (Rattus norvegicus)?
output: ~30 nM
